From: patent US9187486B2

ASSAY_TARGET: Pim-1 (Homo sapiens (Human))
Sequence (P11309 whole entry): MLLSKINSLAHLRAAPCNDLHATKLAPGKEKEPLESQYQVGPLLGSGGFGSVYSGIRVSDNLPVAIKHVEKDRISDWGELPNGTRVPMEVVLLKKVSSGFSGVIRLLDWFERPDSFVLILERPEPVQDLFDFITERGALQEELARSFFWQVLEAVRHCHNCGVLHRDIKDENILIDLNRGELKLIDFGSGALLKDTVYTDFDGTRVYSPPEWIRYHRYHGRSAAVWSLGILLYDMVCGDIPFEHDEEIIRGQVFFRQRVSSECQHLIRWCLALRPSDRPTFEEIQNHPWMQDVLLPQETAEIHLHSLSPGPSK
PROTOCOL_NOTES: Pim enzyme assay (HTRF, phosphorylation of biotinylated-BAD (S112) peptide), Pim-1
Format: biochemical
CONDITION_DETAILS: full length recombinant Pim-1, biotinylated-BAD (S112) peptide, HTRF; read-out: Pim_1_IC50
pIC50: −log10 of the molar value.
PROPERTY: pIC50

COMPOUND: N[C@H]1CCCN(c2ccncc2Nc2ncc3ccc(-c4c(F)cccc4F)nn23)C1 [Example 1, tris(2,2,2-trifluoroacetate)]
PROPERTY: pIC50
VALUE_REPORTED: 10.10

1. CS(=O)(=O)c1ccc(-c2ccc3cnc(Nc4cnccc4N4CCC[C@H](N)C4)n3n2)c(F)c1 [Example 22]
2. Nc1cc(-c2ccncc2Nc2ncc3ccc(-c4c(F)cccc4F)nn23)ccn1 [Example 30]
3. c1cc(N2CCNCC2)c(Nc2ncc3ccc(-c4nccs4)nn23)cn1 [Example 3]
Task: Returns the items ordered by pIC50, from maximum to minimum. Answer format: list of labels, ordered as asked.
Output: 1, 2, 3

----------
ASSAY_TARGET: Pim-1 (Homo sapiens (Human))
PROTOCOL_NOTES: Pim enzyme assay (HTRF, phosphorylation of biotinylated-BAD (S112) peptide), Pim-1
Assay type: biochemical
CONDITION_DETAILS: read-out: Pim-1 IC50 IP
PROPERTY: pIC50
Scale note: pIC50 = -log10(concentration in M).

Task: Determine from records and report pIC50 for C[C@H]1CCN(c2ccncc2Nc2ncc3ccc(-c4c(F)cccc4F)nn23)C[C@H]1N (single isomer, unassigned) [Example 98, bis(2,2,2-trifluoroacetate)]
Output: 8.55

----------
Measured IC50 accompanies every entry in the list below.
System: KMS-12-BM myeloma cell line
PROTOCOL_NOTES: Pim cell assay: phospho-BAD (S112) and total BAD in KMS-12-BM cells
Assay type: cell-based
CONDITION_DETAILS: 1 hour and 50 minutes incubation, bis(2,2,2-trifluoroacetate), read-out: KMS-12-BM IC50 IP
Your answer should be a plain number; it is taken to be in µM.

COMPOUND: C[C@H]1CCN(c2ccncc2Nc2ncc3ccc(-c4c(F)cccc4F)nn23)C[C@H]1N (single isomer, unassigned) [Example 99, bis(2,2,2-trifluoroacetate)]
IC50 [µM]: 2.7

Continue with the compound presented below.
Task: Determine from records and report IC50 for C[C@H]1CCN(c2ccncc2Nc2ncc3ccc(-c4c(F)cccc4F)nn23)C[C@H]1N (single isomer, unassigned) [Example 98, bis(2,2,2-trifluoroacetate)]
Output: 12.1

----------
ASSAY_TARGET: Pim-2 (Homo sapiens (Human))
Sequence (Q9P1W9 whole entry): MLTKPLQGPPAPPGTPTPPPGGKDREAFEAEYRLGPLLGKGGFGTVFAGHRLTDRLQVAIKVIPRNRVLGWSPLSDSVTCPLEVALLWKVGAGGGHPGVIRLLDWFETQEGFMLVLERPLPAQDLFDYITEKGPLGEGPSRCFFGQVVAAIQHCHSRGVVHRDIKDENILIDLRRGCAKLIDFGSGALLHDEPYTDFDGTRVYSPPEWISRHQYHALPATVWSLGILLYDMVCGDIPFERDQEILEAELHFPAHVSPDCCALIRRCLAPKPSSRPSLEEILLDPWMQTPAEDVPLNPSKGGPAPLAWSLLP
PROTOCOL_NOTES: Pim enzyme assay (HTRF, phosphorylation of biotinylated-BAD (S112) peptide), Pim-2
Type: biochemical
CONDITION_DETAILS: full length recombinant Pim-2, biotinylated-BAD (S112) peptide, HTRF, 96-well; read-out: Pim-2 IC50 IP
From the text: Full-length human cDNAs encoding Pim-1 (MGC ID 3913552) or Pim-2 (IMAGE ID 5092935) were purchased from Invitrogen, Carlsbad, Calif. These cDNAs were used as templates in PCR reactions to produce full-length DNA clones of the PIMs. […] The phosphorylation of biotinylated-BAD (S112) peptide by full length recombinant Pim-1, Pim-2, or Pim-3 protein was detected with streptavidin:Allophycocyanin (APC) conjugate and a europium (Eu) labeled antibody directed against phosphorylated-BAD (S112). […]
PROPERTY: IC50 (nM)

# count of solved cases: 5
COMPOUND: O[C@@H]1CCN(c2ccncc2Nc2ncc3ccc(-c4c(F)cccc4F)nn23)C[C@H]1O (single isomer, unassigned) [Example 35]
ASSAY_TARGET: Pim-2 (Homo sapiens (Human))
UNIT_DESCRIPTOR: nM
IC50: 8.8

COMPOUND: N[C@H]1C[C@H](C(F)(F)F)CN(c2ccncc2Nc2ncc3ccc(-c4c(F)cccc4F)nn23)C1 (racemic) [Example 61, bis(2,2,2-trifluoroacetate)]
ASSAY_TARGET: Pim-2 (Homo sapiens (Human))
UNIT_DESCRIPTOR: nM
IC50: 1.4

COMPOUND: N[C@H]1C[C@@H](C(F)(F)F)CN(c2ccncc2Nc2ncc3ccc(-c4c(F)cccc4F)nn23)C1 (racemic) [Example 60, bis(2,2,2-trifluoroacetate)]
ASSAY_TARGET: Pim-2 (Homo sapiens (Human))
UNIT_DESCRIPTOR: nM
IC50: 0.3

COMPOUND: N[C@H]1CCCN(c2ccncc2Nc2ncc3ccc(-c4ncccc4Cl)nn23)C1 [Example 78]
ASSAY_TARGET: Pim-2 (Homo sapiens (Human))
UNIT_DESCRIPTOR: nM
IC50: 2.6

COMPOUND: C[C@H]1CN(c2ccncc2Nc2ncc3ccc(-c4ncccc4F)nn23)C[C@@H](N)[C@@H]1O [Example 66]
ASSAY_TARGET: Pim-2 (Homo sapiens (Human))
UNIT_DESCRIPTOR: nM
IC50: 1.3

1. N[C@H]1CCCN(c2ccccc2Nc2ncc3ccc(-c4c(F)cccc4F)nn23)C1 [Example 73]
2. N[C@H]1CCCN(c2ccncc2Nc2nnc3cccnn23)C1 [Example 68, 2,2,2-trifluoroacetate]
Task: Higher IC50 between 1 and 2 ? Response format: the label of the selected entry.
Output: 2
(2: 73.7 nM, 1: 6.5 nM)

----------
ASSAY_TARGET: Pim-1 (Homo sapiens (Human))
PROTOCOL_NOTES: Pim enzyme assay (HTRF, phosphorylation of biotinylated-BAD (S112) peptide), Pim-1
Format: biochemical
CONDITION_DETAILS: full length recombinant Pim-1, biotinylated-BAD (S112) peptide, HTRF, 96-well; read-out: Pim-1 IC50 IP
PROPERTY: IC50 (nM)

# count of solved cases: 3
MOLECULE: Fc1cccnc1-c1ccc2cnc(Nc3cnccc3N3CCCCC3)n2n1 [Example 71, bis(2,2,2-trifluoroacetate)]
UNIT_DESCRIPTOR: nM
IC50: 38.5

MOLECULE: C[C@@H]1CCN(c2ccncc2Nc2ncc3ccc(-c4c(F)cccc4F)nn23)C[C@H]1N (single isomer, unassigned) [Example 101, tris(2,2,2-trifluoroacetate)]
UNIT_DESCRIPTOR: nM
IC50: 7.6

MOLECULE: C[C@@H]1C[C@H](N)CN(c2ccncc2Nc2nnc3ccc(-c4c(F)cccc4F)nn23)C1 [Example 90, bis(2,2,2-trifluoroacetate)]
UNIT_DESCRIPTOR: nM
IC50: 1

A. Fc1cccc(F)c1-c1ccc2cnc(Nc3cnccc3N3CCCCC3)n2n1 [Example 70, bis(2,2,2-trifluoroacetate)]
B. O[C@@H]1CCN(c2ccncc2Nc2ncc3ccc(-c4c(F)cccc4F)nn23)C[C@H]1O (single isomer, unassigned) [Example 34]
C. N[C@H]1CCCN(c2ccncc2Nc2ncc3ccc(-c4ncccc4Cl)nn23)C1
D. N[C@H]1C[C@@H](F)CN(c2ccncc2Nc2ncc3ccc(-c4ncccc4F)nn23)C1
Task: Returns the items ordered by IC50, from maximum to minimum. Answer format: list of labels, ordered as asked.
Output: B, A, D, C
(B: 66.9 nM, A: 29.6 nM, D: 3.4 nM, C: 0.9 nM)

----------
ASSAY_TARGET: Pim-2 (Homo sapiens (Human))
PROTOCOL_NOTES: Pim enzyme assay (HTRF, phosphorylation of biotinylated-BAD (S112) peptide), Pim-2
Format: biochemical
CONDITION_DETAILS: full length recombinant Pim-2, biotinylated-BAD (S112) peptide, HTRF; read-out: Pim2_IC50
PROPERTY: IC50 (nM)

# count of solved cases: 5
COMPOUND: Fc1cccc(F)c1-c1ccc2cnc(Nc3cnccc3N3CCNCC3)n2n1
IC50, nM: 126
//
COMPOUND: Fc1cccc(F)c1-c1ccc2cnc(Nc3cnccc3OC3CNC3)n2n1
IC50, nM: 99
//
COMPOUND: N[C@H]1CCCN(c2ccncc2Nc2ncc3ccc(Cl)nn23)C1
IC50, nM: 99
//
COMPOUND: c1cc(N2CCNCC2)c(Nc2ncc3ccc(-c4nccs4)nn23)cn1
IC50, nM: 154
//
COMPOUND: Nc1cccc(-c2ccncc2Nc2ncc3ccc(-c4c(F)cccc4F)nn23)c1
IC50, nM: 121

a. N[C@H]1CCCN(c2ncncc2Nc2ncc3ccc(-c4ccccc4F)nn23)C1
b. N[C@H]1CCCN(c2ccncc2Nc2ncc3ccc(-c4cccnc4Cl)nn23)C1 [Example 6, (2,2,2-trifluoroacetate)]
Task: Higher IC50 between a and b ? Response format: the label of the selected entry.
Output: a
(a: 160 nM, b: 77 nM)
